Entries and their binding signal
biological target: POU1 (OCT1 POU domain);BOB1 (OBF1, OCA-B) (human;human, UniProt P14859;Q16633 260-458;1-256, |); test: EMSA-SELEX-seq; with BOB1 (ternary complex band); 20 mM Tris-HCl pH 7.6, 140 mM NaCl, 10% glycerol, 0.5 mM EDTA, 0.05% Triton X-100, 0.1 mg/mL BSA, 0.1 mg/mL poly(dI-dC), 5 mM DTT, room temperature, 20 min; high values mean tight binding; conditions: protein: recombinant;recombinant; copies: 1;1; dsDNA, one strand shown
Sequence (P14859 260-458, chain 1 of 2): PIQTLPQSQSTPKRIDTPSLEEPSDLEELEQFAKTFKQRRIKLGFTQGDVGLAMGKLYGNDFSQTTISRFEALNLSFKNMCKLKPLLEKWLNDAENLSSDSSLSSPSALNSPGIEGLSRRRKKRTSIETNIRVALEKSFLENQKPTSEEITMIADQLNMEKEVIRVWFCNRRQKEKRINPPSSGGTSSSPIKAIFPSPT
Sequence (Q16633 whole entry, chain 2 of 2, the tested form may be a part): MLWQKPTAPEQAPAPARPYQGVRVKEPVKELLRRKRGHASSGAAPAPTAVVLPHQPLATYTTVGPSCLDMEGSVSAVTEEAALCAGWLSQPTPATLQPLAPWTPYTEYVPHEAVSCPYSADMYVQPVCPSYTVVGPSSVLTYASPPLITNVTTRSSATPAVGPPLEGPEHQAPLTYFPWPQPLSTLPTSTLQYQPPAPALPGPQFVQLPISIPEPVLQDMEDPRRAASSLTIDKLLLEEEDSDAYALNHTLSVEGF
measure name: binding signal

| residues | measure name | result |
| --- | --- | --- |
| AACATAAC | binding signal | 0.0347 % of ANNNNAAN 8-mers |
| AAACAAAG | binding signal | 0.165 % of ANNNNAAN 8-mers |
| AACATAAA | binding signal | 0.0527 % of ANNNNAAN 8-mers |
| AAACCAAA | binding signal | 0.0761 % of ANNNNAAN 8-mers |
| ATGCTAAG | binding signal | 0.0777 % of ANNNNAAN 8-mers |
| ATTAGAAC | binding signal | 0.0355 % of ANNNNAAN 8-mers |
| ATAAAAAG | binding signal | 0.0925 % of ANNNNAAN 8-mers |
| ACATAAAT | binding signal | 0.117 % of ANNNNAAN 8-mers |
| AAAAGAAT | binding signal | 0.0937 % of ANNNNAAN 8-mers |
| AGTTCAAT | binding signal | 0.046 % of ANNNNAAN 8-mers |
| ATCTAAAT | binding signal | 0.123 % of ANNNNAAN 8-mers |

Value source: paper PMC10812921
